Assay: small-molecule binders of probe aNOTCH2, primary screen, biochemical, small-molecule microarray, 635/667 nm fluorescence (AID 1121);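 further: score merges feature fluorescence read at 667 nm with its signal to noise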
Conditions: higher = more signal
Reported composite z-score values for a set of compounds
readout.kind: composite z-score

structure | readout.kind | recorded.measurement
COC(=O)NCC=Cc1nc(CCCO)co1 | composite z-score | -0.153
CCOC(=O)NN=C1C[C@@H](O)[C@@H](O)[C@@H]2[C@@H]3C(=O)N(c4ccc(F)cc4F)C(=O)[C@@H]3CC[C@@H]12 | composite z-score | -0.156
O=C1C=C[C@@H](O)[C@@H]2[C@@H]3C(=O)N(C[C@@H]4CCCO4)C(=O)[C@@H]3CC[C@@H]12 | composite z-score | -0.112
O=C1[C@H]2[C@H]3[C@H](O)[C@H](O)CC(=NOC[C@@H](O)COCc4ccco4)[C@H]3CC[C@H]2C(=O)N1Cc1ccccc1 | composite z-score | -0.192
